B1: EHEE_rd2_1257 (parent)
chain: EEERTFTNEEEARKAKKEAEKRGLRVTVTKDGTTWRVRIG

- Variants of: B1
- procedure_text: folding stability dG (cDNA display proteolysis); higher = more stable
- particulars: PBS, room temperature
Form field: folding stability dG (one value per entry).

sequence_input: ERERTFTNEEEARKAKKEAEKRGLRVTVTKDGTTWRVRIG [E2R]
folding stability dG [kcal/mol]: 1.97

sequence_input: EEERTFTNEEEARKAKKEAEKRGLRVTVTKCGTTWRVRIG [D31C]
folding stability dG [kcal/mol]: 2.04

sequence_input: EEERTFTNEEEADKAKKEAEKRGLRVTVTKDGTTWRVRIG [R13D]
folding stability dG [kcal/mol]: 1.98

sequence_input: EEERTFTNEEEARKAKKEAEKRGYRVTVTKDGTTWRVRIG [L24Y]
folding stability dG [kcal/mol]: 2.08

sequence_input: EEERTFTNEEEAHKAKKEAEKRGLRVTVTKDGTTWRVRIG [R13H]
folding stability dG [kcal/mol]: 2.19

sequence_input: EEERTFTNEEEARKAKKEAEKRGLRVTVTKDGTTWRVRMG [I39M]
folding stability dG [kcal/mol]: 1.37

sequence_input: EEERTFTNEEEARKAKKEAEKRGLRVTVYKDGTTWRVRIG [T29Y]
folding stability dG [kcal/mol]: 2.33

sequence_input: EEEETFTNEEEARKAKKEAEKRGLRVTVTKDGTTWRVRIG [R4E]
folding stability dG [kcal/mol]: 1.37

sequence_input: EEERTFTNEEEARKAKGEAEKRGLRVTVTKDGTTWRVRIG [K17G]
folding stability dG [kcal/mol]: 1.78

sequence_input: EEERTFTNEEEARKAKVEAEKRGLRVTVTKDGTTWRVRIG [K17V]
folding stability dG [kcal/mol]: 2.27

sequence_input: EEERTFTNEEMARKAKKEAEKRGLRVTVTKDGTTWRVRIG [E11M]
folding stability dG [kcal/mol]: 1.55

sequence_input: EEERTFTNEEEARKAKKEAEKRGLRVTVTKDGTTRRVRIG [W35R]
folding stability dG [kcal/mol]: 0.023

sequence_input: EEERTFTNEEEARKAKKEAEKRGLRVTVTKDGTTWRFRIG [V37F]
folding stability dG [kcal/mol]: 0.864

sequence_input: EEERTFTNEEEARKAKKEAEKRGLRVTVWKDGTTWRVRIG [T29W]
folding stability dG [kcal/mol]: 2.6

sequence_input: EEERTFTNEEEARKAKKEAEKRGQRVTVTKDGTTWRVRIG [L24Q]
folding stability dG [kcal/mol]: 1.41

sequence_input: EEERTFTNEEEARKAKKEAEKRGLRVTVHKDGTTWRVRIG [T29H]
folding stability dG [kcal/mol]: 1.7

sequence_input: EEERTFTNEEEARKAKKEAEKRGLRVTVTKDGMTWRVRIG [T33M]
folding stability dG [kcal/mol]: 2

sequence_input: EEERTFTNEEEARKAKKEAEKRGLRVTVTKDGTTWRVKIG [R38K]
folding stability dG [kcal/mol]: 2.08

sequence_input: EEERTFTNEEEARKAKYEAEKRGLRVTVTKDGTTWRVRIG [K17Y]
folding stability dG [kcal/mol]: 2.44

sequence_input: EEERTFTNEEEARKSKKEAEKRGLRVTVTKDGTTWRVRIG [A15S]
folding stability dG [kcal/mol]: 0.987

sequence_input: EEEHTFTNEEEARKAKKEAEKRGLRVTVTKDGTTWRVRIG [R4H]
folding stability dG [kcal/mol]: 2.17

sequence_input: EEERTFTNEEEARKAKKEAEKRGLRITVTKDGTTWRVRIG [V26I]
folding stability dG [kcal/mol]: 0.589

sequence_input: EEERTFTNEEEARKAKKEAEKDGLRVTVTKDGTTWRVRIG [R22D]
folding stability dG [kcal/mol]: 1.09

sequence_input: EEERTFTNEEETRKAKKEAEKRGLRVTVTKDGTTWRVRIG [A12T]
folding stability dG [kcal/mol]: 0.316

sequence_input: EEERTFTNEEEARKAKKEAEKRGLNVTVTKDGTTWRVRIG [R25N]
folding stability dG [kcal/mol]: 1.62

sequence_input: EEERTFTWEEEARKAKKEAEKRGLRVTVTKDGTTWRVRIG [N8W]
folding stability dG [kcal/mol]: 0.726

sequence_input: EEERTFTNEEAARKAKKEAEKRGLRVTVTKDGTTWRVRIG [E11A]
folding stability dG [kcal/mol]: 1.8

sequence_input: EEERTFTNEEECRKAKKEAEKRGLRVTVTKDGTTWRVRIG [A12C]
folding stability dG [kcal/mol]: 2

sequence_input: EEERTFTNEEEARKAKKEAEKTGLRVTVTKDGTTWRVRIG [R22T]
folding stability dG [kcal/mol]: 1.06

sequence_input: EEERTFTNEEEARKAKKEAEKRGLRVTVTKDGTTWYVRIG [R36Y]
folding stability dG [kcal/mol]: 2.47

sequence_input: EEERTFTNEEEARKAKKEAEKRGLRVTVTKDGTTWRVRHG [I39H]
folding stability dG [kcal/mol]: 0.156

sequence_input: EEERTFPNEEEARKAKKEAEKRGLRVTVTKDGTTWRVRIG [T7P]
folding stability dG [kcal/mol]: 1.69

sequence_input: EEERTFTNEEEARRAKKEAEKRGLRVTVTKDGTTWRVRIG [K14R]
folding stability dG [kcal/mol]: 2.17

sequence_input: EEERTFTNEEEARKAKKEAEKRGLRVTVTKDGTSWRVRIG [T34S]
folding stability dG [kcal/mol]: 1.82

sequence_input: EEERTFTNEECARKAKKEAEKRGLRVTVTKDGTTWRVRIG [E11C]
folding stability dG [kcal/mol]: 1.56

sequence_input: EEERTFTNEEEARKAKKEAEKRGLRVTVTKDGTTWVVRIG [R36V]
folding stability dG [kcal/mol]: 2.78

sequence_input: EEERTFTNEEEARKAKKYAEKRGLRVTVTKDGTTWRVRIG [E18Y]
folding stability dG [kcal/mol]: 1.59

sequence_input: EEERTFTNEEEARKAKKEAEKRGLRVTVTKGGTTWRVRIG [D31G]
folding stability dG [kcal/mol]: 0.303

sequence_input: EEERTFTNEEEAIKAKKEAEKRGLRVTVTKDGTTWRVRIG [R13I]
folding stability dG [kcal/mol]: 2.74

sequence_input: EEERTFTNEEEARKAKKEAEKRGLRVTVTKDGTTWRVRIF [G40F]
folding stability dG [kcal/mol]: 3.04

sequence_input: EESRTFTNEEEARKAKKEAEKRGLRVTVTKDGTTWRVRIG [E3S]
folding stability dG [kcal/mol]: 1.66

sequence_input: EEERTFTNEEEARKAKKEAELRGLRVTVTKDGTTWRVRIG [K21L]
folding stability dG [kcal/mol]: 2.31

sequence_input: EEERTFTNEDEARKAKKEAEKRGLRVTVTKDGTTWRVRIG [E10D]
folding stability dG [kcal/mol]: 2.01

sequence_input: EEERTFTNEEEARKAKKEAEKRGLRVTVTKDGTTWNVRIG [R36N]
folding stability dG [kcal/mol]: 1.12

sequence_input: EEHRTFTNEEEARKAKKEAEKRGLRVTVTKDGTTWRVRIG [E3H]
folding stability dG [kcal/mol]: 1.42

sequence_input: EEERTFTNEEEARKAKKEAEKRGLRVIVTKDGTTWRVRIG [T27I]
folding stability dG [kcal/mol]: 1.95

sequence_input: EEERTFTNEEEARKAKKEAEKRGLRVTVTGDGTTWRVRIG [K30G]
folding stability dG [kcal/mol]: 1.32

sequence_input: EEERTFTNEEEARKAKKEAEKRGLRVTVDKDGTTWRVRIG [T29D]
folding stability dG [kcal/mol]: 1.2

sequence_input: EEERTFTNEEEARKAKKEAEKRGLRVTVTKDGTTWRVRYG [I39Y]
folding stability dG [kcal/mol]: 1.66
